Source: patent US20200055939A1

# System name: T1, T238A
# T1 construct: % monomer 96; also called MICA*008.mIgG2a T238A
# T1 chain: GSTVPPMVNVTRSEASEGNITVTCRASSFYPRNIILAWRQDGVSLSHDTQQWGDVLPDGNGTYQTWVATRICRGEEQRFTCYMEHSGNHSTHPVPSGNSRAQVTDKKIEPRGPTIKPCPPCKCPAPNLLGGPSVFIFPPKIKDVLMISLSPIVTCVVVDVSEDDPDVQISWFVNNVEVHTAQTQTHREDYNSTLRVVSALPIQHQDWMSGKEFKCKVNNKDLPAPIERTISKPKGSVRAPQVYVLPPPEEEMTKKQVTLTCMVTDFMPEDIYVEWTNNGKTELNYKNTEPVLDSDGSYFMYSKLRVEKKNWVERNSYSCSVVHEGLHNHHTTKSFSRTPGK
# Assay remarks: SPR, Fab over captured MICA*008.mIgG2a Ala variant; KD relative to wild type
Property name: fold-decrease in affinity
The answer should be written as a number, with no unit following it.

Examples with answers:
Binder | Property name | Result value
2E5.2.3 Fab (Fab, V domains shown) VH: QGQMQQSGAELVKPGASVKLSCKTSGFTFSDNYISWLKQKPGQSLEWIAWIYAGTGGTSYNQKFTAKAQLTVDTSSSTAYMQFSSLTTEDSAIYYCARHDYYGTSGAWFAYWGQGTLVTVSA VL: DVLMTQTPLSLPVSLGDQASLSCRSSQNIVHINGNTYLEWYLQKPGQSPKLLIYKVSNRFSGVPDRFSGSGSGTDFTLKISRVEAEDLGVYYCFQGSHVPWTFGGGTKVEIK | fold-decrease in affinity | 1.3
7D4.6 Fab (Fab, V domains shown) VH: DVQLQESGPGLVKPSQSLSLTCTVTGYSITSDYAWNWIRQFPRNKLEWMGYINYSGTTNYNPSLKSRISITRDTSKNQFFLQLISVTTEDTATYYCSYYRYDGAWFPYWGQGTLVTVSA VL: DIQMTQSPASLSASVGETVTITCRASGNIHNYLAWYQQKQGKSPQLLVYNAIMLADGVPSRFSASGSGTQYSLKINSLQPEDFGSYYCQHFWSFPLTFGAGTKVEIK | fold-decrease in affinity | 0.1
6F8.7 Fab (Fab, V domains shown) VH: DVQLQGSGPGLVKPSQSLSLTCSVTGYSITNDYYWNWIRQFPGNKLEWMGFISFGGSNNYNPSLKNRISITRDTSKNQFFLKLSSVTTEDTATYYCARYDGRGAWFAYWAQGTLVTVSA VL: DIQMTQSPASLSASVGETVTITCRASGNIHNYLAWYQQKQGKSPQLLVYDAITLADGVPSRFSGSGSGTQYSLKINSLQPEDFGNYYCQHFWSFPLTFGAGTKVEIK | fold-decrease in affinity | 0.1

Exam item: Tell me the measured fold-decrease in affinity of 1D5 Fab (Fab, V domains shown, Expressed in E. coli as chimera of murine variable and human constant domains; not shown: human IgG1 CH1 constant domain; human kappa CL constant domain) VH: EIQLQQSGPELVKPGASVKVSCKASGYAFTSQNIYWVKQSHGKSLEWIGYIEPYNVVPMYNPKFKGKATLTVDKSSSSAYIHLNSLTSEDSAIYYCARSGSSNFDYWGQGTTLTVSS VL: EIILTQSPTTMAASPGEKITITCSASSSISSHYLHWYQQKSGFSPKLLIYRTSNLASGVPARFSGSGSGTSYSLTIGTMEAEDVATYYCQQGSSLPLTFGAGTKVEIK , please.
Marked response: 0.4
